Molecular target: GLP Receptor
Format: biochemical
Conditions: read-out: Receptor Activation GLP-1/GIP/CT cyclase
REPORTED PROPERTY: EC50 (nM)
Report the value in nM with no unit label.

I'm curious: which EC50 was measured for KCNTATCATQRLANFLVRSSNNLGPVLPPTNVGSNTY [rat amylin] tested on GLP Receptor?
5

---

Target: calcitonin receptor
Assay type: binding
Conditions: read-out: Receptor Binding CT
REPORTED PROPERTY: IC50 (nM)
Report the value in nM with no unit label.

Endpoint output: IC50 of KCNTATCATQRLANFLVRSSNNLGPVLPPTNVGSNTY [rat amylin] . Value?
3
